Tested on: episomal HPV-16 DNA in W12-20850 cells
EXPERIMENT_DESCRIPTION: W-12 cellular assay (hybrid capture quantification of episomal HPV-16 DNA)
Type: cell-based, HPV16
RUN_CONDITIONS: Human papillomavirus 16, W12-20850, 96 h, read-out: W-12
Where a name gives a salt, the structure may show the parent alone.
QUANTITY_NAME: IC50 (nM)
Please state the figure in nM; there is no need to write the unit.

get_value(item= Cc1ccc2[nH]c3c(c2c1)CCC[C@H]3N[C@H](C)c1ccccc1 [Example 43, hydrochloride salt] , readout=IC50) returns 240

get_value(item= C[C@@H](N[C@@H]1CCCc2c1[nH]c1ccc(Br)cc21)c1ccccc1 [Example 31, hydrochloride salt] , readout=IC50) returns 30

get_value(item= CC(C)(NC1CCCc2c1[nH]c1ccc(Br)cc21)c1ccccc1 (stereo not shown) [Example 33, hydrochloride salt] , readout=IC50) returns 750

get_value(item= C[C@H](N[C@@H]1CCCc2c1[nH]c1ccc(Br)cc21)c1ccccc1 [Example 36, hydrochloride salt] , readout=IC50) returns 20

get_value(item= Cc1ccc2[nH]c3c(c2c1)CCC[C@@H]3N[C@@H](C)c1ccccc1 [Example 46, hydrochloride salt] , readout=IC50) returns 8600

get_value(item= Brc1ccc2[nH]c3c(c2c1)CCCC3NC(c1ccccc1)c1ccccc1 (stereo not shown) [Example 60, hydrochloride] , readout=IC50) returns 14

get_value(item= C[C@@H](CNC1CCCc2c1[nH]c1ccc(Br)cc21)c1ccccc1 (stereo partly shown) [Example 39, hydrochloride salt] , readout=IC50) returns 160

====

Tested on: episomal HPV-16 DNA in W12-20850 cells
EXPERIMENT_DESCRIPTION: W-12 cellular assay (hybrid capture quantification of episomal HPV-16 DNA)
Assay type: cell-based, HPV16
RUN_CONDITIONS: Human papillomavirus 16, W12-20850, 96 h, read-out: W-12
Structures can show the parent of a compound that is named as a salt.
QUANTITY_NAME: IC50 (µM)
Please state the figure in µM; there is no need to write the unit.

get_value(item= Brc1ccc2[nH]c3c(c2c1)CCCCC3NCc1ccccc1 (stereo not drawn) [Example 54, hydrochloride] , readout=IC50) returns 1.1

get_value(item= COc1ccc(CNC2CCCc3c2[nH]c2ccccc32)cc1 (stereo not drawn) [Example 16, hydrochloride salt] , readout=IC50) returns 1.5

get_value(item= COCCNC1CCCc2c1[nH]c1ccccc21 (stereo not drawn) [Example 22, hydrochloride salt] , readout=IC50) returns 47

get_value(item= CN(CCc1ccccc1)C1CCCc2c1[nH]c1ccc(Br)cc21 (stereo not drawn) [Example 37, hydrochloride salt] , readout=IC50) returns 3

get_value(item= Brc1ccc2[nH]c3c(c2c1)CCCC3NCCc1ccccc1 (stereo not drawn) [Example 26, hydrochloride salt] , readout=IC50) returns 0.41

get_value(item= c1ccc(CCNC2CCCc3c2[nH]c2ccccc32)cc1 (stereo not drawn) [Example 17, hydrochloride salt] , readout=IC50) returns 7.4

get_value(item= FC(F)(F)c1ccc2[nH]c3c(c2c1)CCCC3NCc1ccccc1 (stereo not drawn) [Example 58, hydrochloride] , readout=IC50) returns 1

get_value(item= C[C@@H](NC1CCCc2c1[nH]c1cc(Br)ccc21)c1ccccc1 (stereo partly drawn) [Example 62, hydrochloride] , readout=IC50) returns 8

get_value(item= C[C@H](N[C@H]1CCCc2c1[nH]c1ccc(Br)cc21)c1ccccc1 [Example 35, hydrochloride salt] , readout=IC50) returns 3

get_value(item= C[C@@H](N[C@H]1CCCc2c1[nH]c1ccc(Br)cc21)c1ccccc1 [Example 32, hydrochloride salt] , readout=IC50) returns 0.525

get_value(item= Cn1c2c(c3cc(Br)ccc31)CCCC2NCCc1ccccc1 (stereo not drawn) [Example 38, hydrochloride salt] , readout=IC50) returns 27

get_value(item= COc1ccc2[nH]c3c(c2c1)CCCC3NCc1ccccc1 (stereo not drawn) [Example 53, hydrochloride salt] , readout=IC50) returns 7.6

get_value(item= Cc1ccc2[nH]c3c(c2c1)CCCC3N[C@@H](C)c1ccccc1 (stereo partly drawn) [Example 45, hydrochloride salt] , readout=IC50) returns 7

get_value(item= c1ccc(CNC2CCCc3c2[nH]c2ccccc32)cc1 (stereo not drawn) [Example 15, hydrochloride salt] , readout=IC50) returns 6.6

get_value(item= Cc1ccc2[nH]c3c(c2c1)CCCC3NCCc1ccccc1 (stereo not drawn) [Example 40, hydrochloride salt] , readout=IC50) returns 2.7

get_value(item= Cc1ccc2[nH]c3c(c2c1)CCCC3N[C@H](C)c1ccccc1 (stereo partly drawn) [Example 42, hydrochloride salt] , readout=IC50) returns 0.54

get_value(item= C[C@@H](NC1CCCc2c1[nH]c1ccccc21)c1ccccc1 (stereo partly drawn) [Example 18, hydrochloride salt] , readout=IC50) returns 12.3

get_value(item= C[C@@H](NC1CCCc2c1[nH]c1ccc(C(F)(F)F)cc21)c1ccccc1 (stereo partly drawn) [Example 59, hydrochloride] , readout=IC50) returns 0.287

get_value(item= C[C@H](NC1CCCc2c1[nH]c1ccc(Br)cc21)c1ccccc1 (stereo partly drawn) [Example 34, hydrochloride salt] , readout=IC50) returns 0.29

get_value(item= OC[C@H](NC1CCCc2c1[nH]c1ccccc21)c1ccccc1 (stereo partly drawn) [Example 23, hydrochloride salt] , readout=IC50) returns 30
